Assay: Solubility determination in ethyl acetate (parts by weight of solvent needed to dissolve one part of yellow dye)
Assay type: physicochemical
Conditions: Ethylacetat, 60°C
Method: Von den erfindungsgemäßen Verbindungen II-1, 11-5 und III-1 sowie von den strukturanalogen Vergleichsverbindungen V-1, V-2, V-3, V-4, V-5 und V-6 wurden deren Löslichkeit in Ethylacetat bei 60°C bestimmt. Hierzu wurde ermittelt, wieviele Gewichtsteile Lösungsmittel zum Lösen eines Gewichtsteils Gelbfarbstoff erforderlich sind. Die miteinander zu vergleichenden Farbstoffe unterschieden sich jeweils ausschließlich in der Substitution des Phenylazorestes
MEASURED QUANTITY: 1 Gew.-Teil Verbindung löst sich in X Gew.-Teilen Ethyl-acetat (Gew.-Teilen Ethyl-acetat)
Answer with a number only, understood to be in Gew.-Teilen Ethyl-acetat.

These recorded examples may help you get a feel for the data.
CCCCCCCCCCCCCC(=O)Nc1ccc(Cl)c(NC2=NN(c3c(Cl)cc(Cl)cc3Cl)C(=O)C2N=Nc2ccc(OCC)c(OCC)c2)c1 (stereo not shown) [V-2] | 19
CCCCCCCCCCCCCC(=O)Nc1ccc(Cl)c(NC2=NN(c3c(Cl)cc(Cl)cc3Cl)C(=O)C2N=Nc2ccc(OCCC)c(OCCC)c2)c1 (stereo not shown) [V-3] | 23

Moving on to the next compound.
q: Requested read-out: 1 Gew.-Teil Verbindung löst sich in X Gew.-Teilen Ethyl-acetat. Entry: CCCCCCCCCCCCCC(=O)Nc1ccc(Cl)c(NC2=NN(c3c(Cl)cc(Cl)cc3Cl)C(=O)C2N=Nc2ccc(OC)c(OC)c2)c1 (stereo not shown) [V-1]
a: 15
